# TGI listing for each entry below
System: KM12 colon
Test: NCI tumour cell line growth inhibition, 48 h

>  <compound>
COC(=O)C1(C)CCc2c(ccc3ccccc23)C1=O (stereo unspecified)

>  <TGI>
70.4 µM

$$$$
>  <compound>
c1ccc(NC2(c3nnnn3C3CCCCC3)CCNCC2)cc1

>  <TGI>
31.3 µM

$$$$

Give the measured TGI for O=C1NC(c2ccccc2)C1N(Cc1ccccc1)Cc1ccccc1 (stereo unspecified)
> 100 µM

Give the measured TGI for COC(=O)C12C3C=CC(O3)C1C1C=CC2O1 (stereo unspecified)
> 100 µM

Give the measured TGI for C=C1CCC2C3(C)COC(c4cccc(Cl)c4)OC3CCC2(C)C1/C=C/C1=CCOC1=O (stereo unspecified)
> 100 µM

Give the measured TGI for `[N-]=[N+]=NC1=C(N=[N+]=[N-])c2cccc3cccc(c23)C1=O`
> 100 µM

###

Test system: SK-MEL-5 melanoma
Assay: NCI tumour cell line growth inhibition, 48 h
Returns one of y or n; y when TGI is >= 20 µM.

In plain terms: is recorded TGI at least 20 µM for `c1ccc2c(-c3ccnc(-c4c[nH]c5ccccc45)n3)c[nH]c2c1` ?
n

In plain terms: is recorded TGI at least 20 µM for CC(C)=CCc1c(O)c(CC=C(C)C)c2oc3c(c(=O)c2c1O)C(C=C(C)C)Oc1cc(O)ccc1-3 (centres undefined) ?
y

In plain terms: is recorded TGI at least 20 µM for `Nc1cc2c3c(cccc3c1)C(=O)N(CCN1CCN(CCN3C(=O)c4cccc5cc(N)cc(c45)C3=O)CC1)C2=O` ?
y

In plain terms: is recorded TGI at least 20 µM for `CC/C(=C(/CC)c1ccc(OP(=O)([O-])[O-])cc1)c1ccc(OP(=O)([O-])[O-])cc1.N.N.N.N.[Pt+4].[Pt+4]` ?
n

In plain terms: is recorded TGI at least 20 µM for `CSC(=S)Nc1cc(C)ccn1` ?
y

In plain terms: is recorded TGI at least 20 µM for `O=C1c2ccccc2-c2ccc(N(Cc3ccc(Br)cc3)Cc3ccc(Br)cc3)cc21` ?
y

In plain terms: is recorded TGI at least 20 µM for `Cn1cc(-c2ccc3c(c2)ncn3-c2ccc(CC(=O)Nc3cc(C(C)(C)C)on3)cc2)cn1` ?
n

In plain terms: is recorded TGI at least 20 µM for `COc1cc(-c2[nH]ncc2CCCC(=O)Nc2ccccc2[N+](=O)[O-])ccc1O` ?
y

In plain terms: is recorded TGI at least 20 µM for COc1ccc(C2C(Cl)C(=O)N2NC(=O)c2ccc(NC(C)=O)cc2)cc1OC (centres undefined) ?
y

In plain terms: is recorded TGI at least 20 µM for Cc1c(O)c(OC2OC(CO)C(O)C(O)C2O)cc2c1CC[C@@H]1C2(C)C(=O)C[C@]2(C)[C@@H]([C@@](C)(O)C(O)CCC(C)(C)O)[C@H](O)C[C@@]12C (some centres undefined) ?
y

In plain terms: is recorded TGI at least 20 µM for CNC1=C(C)C(=O)C2=C(C1=O)C(COC(N)=O)C1(OC)C3NC3CN21 (centres undefined) ?
n

In plain terms: is recorded TGI at least 20 µM for `O=C(O)Cc1ccccc1` ?
y

###

# TGI listing for each entry below
Tested on: HCT-116 colon
Assay: NCI tumour cell line growth inhibition, 48 h

Please review the entries below; each comes with its answer.
>  <compound>
COc1ccc([N+](=O)[O-])cc1[I+]c1cc([N+](=O)[O-])ccc1OC

>  <target-of-assay>
HCT-116 colon

>  <TGI>
> 100 µM

$$$$
>  <compound>
COc1cc(-c2cn(-c3ccc(Cl)cc3)c(=O)n2-c2ccccc2)cc(OC)c1OC

>  <target-of-assay>
HCT-116 colon

>  <TGI>
> 100 µM

$$$$
>  <compound>
CC(=O)OCC1OC(n2cnc3c(I)nc(I)nc32)C(OC(C)=O)C1OC(C)=O (configuration not stated)

>  <target-of-assay>
HCT-116 colon

>  <TGI>
16.7 µM

$$$$
>  <compound>
NC(=O)OCc1c(O)c2c(c(O)c1COC(N)=O)C(=O)C=CC2=O

>  <target-of-assay>
HCT-116 colon

>  <TGI>
> 100 µM

$$$$
>  <compound>
O=C(c1no[n+]([O-])c1C(=O)c1csc2ccccc12)c1csc2ccccc12

>  <target-of-assay>
HCT-116 colon

>  <TGI>
25.9 µM

$$$$
>  <compound>
Cc1ccc2c(c1)/C(=N\N=C/c1cn(C(C)C)c3ccccc13)C(=O)N2

>  <target-of-assay>
HCT-116 colon

>  <TGI>
> 100 µM

$$$$
>  <compound>
Cn1c(=O)c2c(nc3n2C(CCl)CO3)n(C)c1=O (configuration not stated)

>  <target-of-assay>
HCT-116 colon

>  <TGI>
> 100 µM

$$$$
>  <compound>
O=C1NCC2=C1CCC1c3ccccc3CCN21 (configuration not stated)

>  <target-of-assay>
HCT-116 colon

>  <TGI>
> 100 µM

$$$$
>  <compound>
O=c1[nH]cnc2c1nnn2C1C=C(CO)C(O)C1O (configuration not stated)

>  <target-of-assay>
HCT-116 colon

>  <TGI>
> 100 µM

$$$$
>  <compound>
CNS(=O)(=O)NN(C)S(=O)(=O)c1ccc(C)cc1

>  <target-of-assay>
HCT-116 colon

>  <TGI>
> 100 µM

$$$$

Give the measured TGI for COC(=O)C1(Cc2ccccc2C)Cc2ccc(C)cc2C1=O (configuration not stated)
> 100 µM

Give the measured TGI for `COc1cccc(/C=N/[N-]C(N)=O)c1[O-].[OH3+].[Zn+2]`
> 100 µM

Give the measured TGI for `CCCNc1c(Cl)cc(Cl)c2[nH]c3ccccc3c(=O)c12`
> 100 µM

Give the measured TGI for `Nc1nccc(C#Cc2cncnc2Nc2ccc(OCc3cccc(F)c3)c(Cl)c2)n1`
7.43 µM

Give the measured TGI for `O=C1/C(=C\c2ccccc2)CN(C(=O)c2ccccc2F)C/C1=C\c1ccccc1`
1.03 µM

Give the measured TGI for `CC(=O)Nc1ccc2c(c1)C(=Nc1ccc(C(=O)O)cc1)c1ccccc1-2`
> 100 µM

Give the measured TGI for COC1(CCO)CC=CCC1(CCO)OC (configuration not stated)
> 100 µM

Give the measured TGI for Nc1ncn([C@@H]2C=C(CO)C(O)C2O)c(=O)n1 (some centres not stated)
> 100 µM

Give the measured TGI for CC1(C)CC(C2CC(C)(C)CC(C)(C)[C@H]2O)[C@@H](O)C(C)(C)C1 (some centres not stated)
> 100 µM

Give the measured TGI for CC(C)=CCc1c(O)c(CC=C(C)C)c2oc3c(c(=O)c2c1O)C(C=C(C)C)Oc1cc(O)ccc1-3 (configuration not stated)
13.2 µM

Give the measured TGI for CCOC(=O)C(NC(=O)Nc1ccccc1F)(OC)C(F)(F)F (configuration not stated)
> 100 µM

Give the measured TGI for `COc1ccc(C(=O)Nc2ccccc2C#N)cc1`
> 100 µM

###

System: SF-295 CNS
Test: NCI tumour cell line growth inhibition, 48 h
property: TGI

>  <compound>
COC(=O)/C=C1/OC(c2ccccc2)=CC1=O

>  <test-result>
21.8 µM

$$$$

Please respond with reported TGI (system SF-295 CNS) for `Cc1cc2c(C)nn(Cc3ccc(Cl)cc3Cl)c2c(C#N)c1C` .
> 100 µM

Please respond with reported TGI (system SF-295 CNS) for CC(=O)NC1C(OCc2ccccc2)OC(CO)C(O)C1OC(C)C(=O)NC(C(=O)NC(CCC(=O)Nc1ccc2c(c1)CN1C(=O)c3ccccc3C1=N2)C(N)=O)C(C)C (stereo not drawn) .
> 100 µM

Please respond with reported TGI (system SF-295 CNS) for `CCC/C(Cl)=N/OC(=O)Nc1cccc(F)c1` .
32.5 µM

Please respond with reported TGI (system SF-295 CNS) for O=C(O)C1CCCCN1CCc1c[nH]c2ccccc12 (stereo not drawn) .
> 100 µM

Please respond with reported TGI (system SF-295 CNS) for `CCCN=C1S/C(=C/c2ccc(OC)c(OC)c2)C(=O)N1c1ccccc1` .
34.9 µM

Please respond with reported TGI (system SF-295 CNS) for `NC(=NCc1ccccc1)N/N=C\c1ccnc2ccccc12` .
32.2 µM

Please respond with reported TGI (system SF-295 CNS) for COc1cccc(C2C3=C(COC3=O)N(CCO)c3cc4c(cc32)CCC4)c1 (stereo not drawn) .
0.543 µM

Please respond with reported TGI (system SF-295 CNS) for `O=Cc1cc(O)ccc1Br` .
99.5 µM

Please respond with reported TGI (system SF-295 CNS) for `O=[N+]([O-])c1ccc(N=Nc2c(O)[nH]c3ccc(Br)cc23)c([N+](=O)[O-])c1` .
14.8 µM

Please respond with reported TGI (system SF-295 CNS) for `Nc1cccc2cc(S(=O)(=O)Nc3ccc(C(=O)O)cc3)ccc12` .
> 100 µM

Please respond with reported TGI (system SF-295 CNS) for COC(=O)CC(CC(=O)C(=O)OC)C(=O)OC (stereo not drawn) .
> 100 µM

Please respond with reported TGI (system SF-295 CNS) for CC1(c2nc3ccccc3[nH]2)CCC(CO)C(C)(C)O1 (stereo not drawn) .
> 100 µM
